The reported measurements were obtained from patent US20240417484A1.

Each entry below carries its recorded percent inhibition of binding.
- studySystem: T1, human CD73 on cells (CD73-transfected HEK cells; native on PBMCs; OCI-AML3 cells) (human, UniProt P21589 27-549)
- T1 construct: also called NT5E; gene ID 4907
- T1 sequence: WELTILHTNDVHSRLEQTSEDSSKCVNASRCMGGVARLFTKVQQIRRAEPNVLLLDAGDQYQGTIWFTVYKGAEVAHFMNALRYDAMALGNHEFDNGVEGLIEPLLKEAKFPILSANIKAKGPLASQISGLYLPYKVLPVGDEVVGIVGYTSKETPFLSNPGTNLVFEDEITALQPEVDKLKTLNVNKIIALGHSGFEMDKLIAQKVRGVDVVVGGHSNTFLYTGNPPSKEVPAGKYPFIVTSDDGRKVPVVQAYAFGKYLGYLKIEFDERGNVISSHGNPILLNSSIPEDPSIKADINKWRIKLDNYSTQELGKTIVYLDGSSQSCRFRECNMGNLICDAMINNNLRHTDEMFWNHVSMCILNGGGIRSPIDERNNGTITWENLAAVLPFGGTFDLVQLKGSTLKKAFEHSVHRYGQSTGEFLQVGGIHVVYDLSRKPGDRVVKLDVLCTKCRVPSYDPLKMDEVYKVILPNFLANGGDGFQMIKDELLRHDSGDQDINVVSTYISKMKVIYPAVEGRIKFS
- methodSummary: flow cytometry, human CD73-expressing cells; competitor: human IgG hcAb SB141
API: value field is a number in %; no unit string.

>>> valuemeasured("SB121 rabbit IgG hcAb (Fc fusion, not shown: hinge and Fc-domains of rabbit IgG) heavy: QVQLQESGGGLVQAGGSLRLSCAASGSIGSIIAMGWYRQGPGKQRELVARMFTDDGSTNYDDSVKGRFTISRDSAGTTVYLQMNSLKPEDTAVYYCNAQRRWNAYWGPGTQVTVSS")
77

query: Would you mind telling me what percent inhibition of binding value was observed for SB96 rabbit IgG hcAb (Fc fusion, VHH fused upstream of hinge and Fc of rabbit IgG; also called Nb-rbIgG hcAb SB96; not shown: hinge and Fc-domains of rabbit IgG) heavy: DVQLQASGGGLVQPGGSLRLSCTASGFTLDYLSIGWFRQVPGKEREGVSCINSSGGSTNYADSLKGRLTISRDNAKNTVYLQMNSLKPEDTAVYYCAAHKYYYCSNKVEVFDYWGQGTPVTVSS ?
result: 17
